Below: a set of entries, each annotated with reported IC50.
# testTarget: catalytic domain of human collagenase 3 (MMP-13) (Homo sapiens, UniProt P45452)
# Construct: Determining the enzyme activity of the catalytic domain of human collagenase 3 (MMP-13); purchased INVITEK, Berlin 30 100 803
# experimentalDetails: Enzyme activity of the catalytic domain of human collagenase 3 (MMP-13), fluorogenic substrate
# Assay type: biochemical
# runConditions: catalytic domain, activated proenzyme, pH 7.5; read-out: IC50 MMP13
# Description: Determining the enzyme activity of the catalytic domain of human collagenase 3 (MMP-13). Activating the proenzyme: 2 parts by volume of proenzyme are incubated with 1 part by volume of APMA solution at 37° C. for 1.5 hours. […] In the case of both reaction 1 and reaction 2, the enzyme reaction is monitored by fluorescence spectroscopy (328 nm (extinction)/393 nm (emission)) after adding 10 μL of a 3% (v/v) aqueous solution of dimethyl sulfoxide containing 0.75 mmol of the substrate/L. […]
Give just the number in nM; leave the unit off.

COc1cccc(CNC(=O)c2cc(C(=O)NCc3ccc(NC(=O)Nc4cc(Cl)nc(Cl)c4)cc3)ncn2)c1 ... 40
Cc1cc(CNC(=O)c2cc(C(=O)NCc3ccc(C(=O)NCCN4CCOCC4)cc3)ncn2)ccc1F ... 23
O=C(NO)c1ccc(CNC(=O)c2cc(C(=O)NCc3ccc4c(c3)CCO4)ncn2)cc1 ... 20
COc1cccc(CNC(=O)c2cc(C(=O)NCc3ccc(NC(=O)NS(=O)(=O)c4ccc(C)cc4)cc3)ncn2)c1 ... 2.4
COc1cccc(CNC(=O)c2cc(C(=O)NCc3ccc(C(=O)NC(C)(C)C)cc3)ncn2)c1 ... 50
O=C(NCc1ccncc1)c1cc(C(=O)NCc2ccc3c(c2)CCO3)ncn1 ... 20

Using the record for CS(=O)(=O)NC(=O)Nc1ccc(CNC(=O)c2cc(C(=O)NCc3ccc4c(c3)CCO4)ncn2)cc1 , report its IC50.
3.2

###

# testTarget: catalytic domain of human collagenase 3 (MMP-13) (Homo sapiens)
# Construct: Determining the enzyme activity of the catalytic domain of human collagenase 3 (MMP-13); purchased INVITEK, Berlin 30 100 803
# experimentalDetails: Enzyme activity of the catalytic domain of human collagenase 3 (MMP-13), fluorogenic substrate
# Assay type: biochemical
# runConditions: catalytic domain, activated proenzyme, pH 7.5; read-out: IC50 MMP13
# Experimental: Determining the enzyme activity of the catalytic domain of human collagenase 3 (MMP-13). Activating the proenzyme: 2 parts by volume of proenzyme are incubated with 1 part by volume of APMA solution at 37° C. for 1.5 hours. […] In the case of both reaction 1 and reaction 2, the enzyme reaction is monitored by fluorescence spectroscopy (328 nm (extinction)/393 nm (emission)) after adding 10 μL of a 3% (v/v) aqueous solution of dimethyl sulfoxide containing 0.75 mmol of the substrate/L. […]
measuredAttribute: log10 of IC50 (log10 of the value in nM)
Short version: log10 scale, IC50, nM.

Take a look at these entries with their results.
COc1cccc(CNC(=O)c2cc(C(=O)NCc3ccc(C(=O)NC4CCNCC4)cc3)ncn2)c1 ... 1.70
COc1cccc(CNC(=O)c2cc(C(=O)NCc3ccc(C(=O)N4CCC(O)CC4)cc3)ncn2)c1 ... 1.18
COc1cccc(CNC(=O)c2cc(C(=O)NCc3ccc(NC(=O)CN4CCCC4)cc3)ncn2)c1 ... 1.78

Query (compound): COc1cccc(CNC(=O)c2cc(C(=O)NCc3ccc(NC(=O)NS(=O)(=O)c4ccccc4)cc3)ncn2)c1 ; field requested: log10 of IC50
1.48

Which log10 of IC50 reading was recorded for the compound CCCNC(=O)c1ccc(CNC(=O)c2cc(C(=O)NCc3cccc(OC)c3)ncn2)cc1 ?
1.11

Entry COc1cccc(CNC(=O)c2cc(C(=O)NCc3ccc(NC(=O)NC(=O)C4CCCCC4)cc3)ncn2)c1 : reported log10 of IC50 = ?
0.60

###

# testTarget: catalytic domain of human collagenase 3 (MMP-13) (Homo sapiens, UniProt P45452)
# Construct: Determining the enzyme activity of the catalytic domain of human collagenase 3 (MMP-13); purchased INVITEK, Berlin 30 100 803
# experimentalDetails: Enzyme activity of the catalytic domain of human collagenase 3 (MMP-13), fluorogenic substrate
# Format: biochemical
# runConditions: catalytic domain, activated proenzyme, pH 7.5; read-out: IC50 MMP13
measuredAttribute: pIC50
Scale: pIC50 equals -log10([C]), with [C] in mol/L.

Example results:
COc1cccc(CNC(=O)c2cc(C(=O)NCc3ccc(C(=O)N4CCOCC4)cc3)ncn2)c1 [Example 151] ... 8.05
COc1cccc(CNC(=O)c2cc(C(=O)NCc3ccc(C(=O)NC#N)cc3)ncn2)c1 [Example 86] ... 8.60
O=C(NCc1ccc(C(=O)N2CCOCC2)cc1)c1cc(C(=O)NCc2ccc3c(c2)CCO3)ncn1 [Example 5] ... 8.10
Cc1cc(CNC(=O)c2cc(C(=O)NCc3ccc(C(=O)NC#N)cc3)ncn2)ccc1F [Example 78] ... 8.52

# value lookup — system catalytic domain of human collagenase 3 (MMP-13) (Homo sapiens, UniProt P45452), readout pIC50, item Cc1cc(CNC(=O)c2cc(C(=O)NCc3ccc(C(=O)NO)cc3)ncn2)ccc1F [Example 93]
7.70

Kindly state the measured pIC50 obtained for O=C(NCc1ccc(C(=O)N2CCOCC2)cc1)c1cc(C(=O)NCc2ccc(F)c(Cl)c2)ncn1 [Example 154] with catalytic domain of human collagenase 3 (MMP-13) (Homo sapiens, UniProt P45452).
7.66

###

# testTarget: catalytic domain of human collagenase 3 (MMP-13) (Homo sapiens)
# Construct: Determining the enzyme activity of the catalytic domain of human collagenase 3 (MMP-13); purchased INVITEK, Berlin 30 100 803
# experimentalDetails: Enzyme activity of the catalytic domain of human collagenase 3 (MMP-13), fluorogenic substrate
# Format: biochemical
# runConditions: catalytic domain, activated proenzyme, pH 7.5; read-out: IC50 MMP13
Class (by IC50) -- class A: < 20 nM; class B: ≥ 20 nM and < 30 nM; class C: ≥ 30 nM

Into which category would you place COc1cccc(CNC(=O)c2cc(C(=O)NCc3ccc(NC(=O)NC(=O)C(C)C)cc3)ncn2)c1 ?
class A

State the band of Cc1cc(CNC(=O)c2cc(C(=O)NCc3ccc(C(=O)NCCN4CCCC4)cc3)ncn2)ccc1F
class C

Field: class (IC50) — entry: O=C(NCCN1CCOCC1)c1ccc(CNC(=O)c2cc(C(=O)NCc3ccc4c(c3)CCO4)ncn2)cc1
class C

Could you place CC#CCOC(=O)Nc1ccc(CNC(=O)c2cc(C(=O)NCc3cccc(OC)c3)ncn2)cc1 in its proper category? Many thanks.
class A

Category of CN1CCN(C(=O)c2ccc(CNC(=O)c3cc(C(=O)NCc4ccc5c(c4)CCO5)ncn3)cc2)CC1 :
class C

In plain terms, what class is O=C(NCCO)c1ccc(CNC(=O)c2cc(C(=O)NCc3ccc4c(c3)CCO4)ncn2)cc1 [Example 75a] ?
class C

Class for Cc1cc(CNC(=O)c2cc(C(=O)NCc3ccc(C(=O)N4CCSCC4)cc3)ncn2)ccc1F ?
class B

Class for COc1cccc(CNC(=O)c2cc(C(=O)NCc3ccc(C(=O)NO)cc3)ncn2)c1 ?
class A

Which bin, given its IC50, does COc1cccc(CNC(=O)c2cc(C(=O)NCc3cccc(NC(=O)OC(C)C)c3)ncn2)c1 occupy?
class C

Exercise: read the entry Cc1cc(CNC(=O)c2cc(C(=O)NCc3ccc(NC(=O)NS(C)(=O)=O)cc3)ncn2)ccc1F and state which class it falls under.
class A

Class? Entry: COc1cccc(CNC(=O)c2cc(C(=O)NCc3ccc(NC(=O)NS(C)(=O)=O)cc3)ncn2)c1
class A

Please let me know in which category the item COc1cccc(CNC(=O)c2cc(C(=O)NCc3ccc(NC(=O)NC(C)(C)C)cc3)ncn2)c1 belongs.
class C

State the class of the molecule shown: O=C(NCc1ccc(C(=O)N2CCC(O)CC2)cc1)c1cc(C(=O)NCc2ccc3c(c2)CCO3)ncn1
class B

###

# testTarget: catalytic domain of human collagenase 3 (MMP-13) (Homo sapiens, UniProt P45452)
# Construct: Determining the enzyme activity of the catalytic domain of human collagenase 3 (MMP-13); purchased INVITEK, Berlin 30 100 803
# experimentalDetails: Enzyme activity of the catalytic domain of human collagenase 3 (MMP-13), fluorogenic substrate
# Assay type: biochemical
# runConditions: catalytic domain, activated proenzyme, pH 7.5; read-out: IC50 MMP13
Each entry below carries its recorded pIC50.
Note on units: pIC50 is unitless, being -log10 of a concentration expressed in mol/L.

COc1cccc(CNC(=O)c2cc(C(=O)NCc3ccc(NC(=O)NC(=O)c4cccnc4)cc3)ncn2)c1 [Example 126] ... 8.64
CS(=O)(=O)NC(=O)Nc1ccc(CNC(=O)c2cc(C(=O)NCc3ccc(F)c(Cl)c3)ncn2)cc1 [Example 63] ... 8.05
CCN(CC)C(=O)c1ccc(CNC(=O)c2cc(C(=O)NCc3ccc(F)c(Cl)c3)ncn2)cc1 [Example 153] ... 7.82

State the recorded pIC50 for this entry: Cc1cc(CNC(=O)c2cc(C(=O)NCc3ccc(C(=O)N4CCOCC4)cc3)ncn2)ccc1F [Example 87]
7.62

Which pIC50 is listed for COc1cccc(CNC(=O)c2cc(C(=O)NCc3ccc(C(=O)N4CCNC(=O)C4)cc3)ncn2)c1 [Example 73] ?
7.60

Which pIC50 is reported for this molecule? COC(=O)CNC(=O)c1ccc(CNC(=O)c2cc(C(=O)NCc3ccc(F)c(C)c3)ncn2)cc1 [Example 106]
7.40

pIC50 lookup needed for O=C(NCc1ccc(C(=O)N2CCSCC2)cc1)c1cc(C(=O)NCc2ccc3c(c2)CCO3)ncn1 [Example 72] , thanks.
8.00

Item under review: COc1cccc(CNC(=O)c2cc(C(=O)NCc3ccc(NC(=O)NC(=O)c4ccccc4)cc3)ncn2)c1 [Example 147] . Reported pIC50?
8.52

Query: pIC50; subject: C#CCOC(=O)Nc1ccc(CNC(=O)c2cc(C(=O)NCc3cccc(OC)c3)ncn2)cc1 [Example 144]
8.05

Would you mind telling me what pIC50 value was observed for O=C(NCc1cccnc1)c1cc(C(=O)NCc2ccc3c(c2)OCCO3)ncn1 [Example 44] ?
6.70

Name the recorded pIC50 for Cc1cc(CNC(=O)c2cc(C(=O)NCc3ccc4c(c3)OCCN4C)ncn2)ccc1F [Example 112] .
7.35

Tell me the measured pIC50 of O=C(NCc1ccncc1)c1ccc(CNC(=O)c2cc(C(=O)NCc3ccc4c(c3)CCO4)ncn2)cc1 [Example 82] , please.
7.52

# pIC50 lookup, item COc1cccc(CNC(=O)c2cc(C(=O)NCc3ccc(C(=O)N4CCSCC4)cc3)ncn2)c1 [Example 71]
8.05

Query: pIC50; subject: COc1cccc(CNC(=O)c2cc(C(=O)NCc3ccc(C(=O)NCCN4CCOCC4)cc3)ncn2)c1 [Example 36]
8.00

pIC50 for Cc1cc(CNC(=O)c2cc(C(=O)NCc3ccc(C(=O)NCCO)cc3)ncn2)ccc1F [Example 76] ?
7.64

Returns the measured pIC50 for the input molecule. Input: O=C(O)CNC(=O)c1ccc(CNC(=O)c2cc(C(=O)NCc3ccc4c(c3)CCO4)ncn2)cc1 [Example 98]
7.70
